Experiment: amyloid nucleation score (Sup35N fusion, yeast selection) (log enrichment); library NNK1; higher = more nucleation; inactive = no reads after selection;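 also: zero at mode of non-aggregating sequences after 7 days selection at 30°C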
Measured amyloid nucleation score, listed per entry for reference.
// return just the number, without any unit appended

substance	recorded-value
AHGMYAEGVTWSALVSSRCE	2.56
LPPTLVLMIHNRRVCRCSLA	1.05
PANIVAFGGLMSIPLVLPVL	-0.104
QSNLYLLALELAYECYSGCH	0.049
AVGKYLWASVGIAFDRQSIM	-0.837

(Q) State the recorded amyloid nucleation score for this entry: VGYGASMYYYFFWHKFFLVF
(A) 0.037

(Q) Subsequent entry: RPNSYGSLWRERIGLIYTYE
(A) 1.33

(Q) Subsequent entry: TWGSGY
(A) -0.797

(Q) Subsequent entry: VRLFMYMCIWMFMSDSSIWG
(A) -0.348

(Q) Subsequent entry: AARELKIVTRVMHFDADREA
(A) 0.103

(Q) Subsequent entry: VWGQRGSGSNSCLEW
(A) 0.15

(Q) Subsequent entry: LWMFRFNYYDVLPCGMPGLC
(A) 0.694

(Q) Subsequent entry: IQPLIWANYFVIGARV
(A) 3.66

(Q) Subsequent entry: YYTYDGVGSLICTCRFTRVV
(A) -0.356

(Q) Subsequent entry: YFAEDSCERFAPDWVRLSTR
(A) -0.425

(Q) Subsequent entry: HGNCWSPTRAVRQYGVNAPM
(A) 0.81

(Q) Subsequent entry: CVAWVSSNPRVGGDIRTWTE
(A) 0.021

(Q) Subsequent entry: IVYLSCFVRCP
(A) 0.379

(Q) Subsequent entry: MMRTWGLFRVGRWESWRPVR
(A) 0.26

(Q) Subsequent entry: SLLTYQ
(A) 0.757

(Q) Subsequent entry: CFYNKRLCGRPFMLVWQNYS
(A) 0.161

(Q) Subsequent entry: DLDSVGTVMGDQGDFS
(A) -0.416

(Q) Subsequent entry: DGLKGSLCGMGHRLCLKKMN
(A) 0.131

(Q) Subsequent entry: QFFTILCTGILLLNASTRLL
(A) -0.777

(Q) Subsequent entry: FRHGKVWSLLKLGADAGREE
(A) 0.098

(Q) Subsequent entry: SLPFVTLLNAMCVCSGANCL
(A) 8.45

---

Experiment: amyloid nucleation score (Sup35N fusion, yeast selection) (log enrichment); library NNK2; higher = more nucleation; inactive = no reads after selection
Categories are defined by ranges of amyloid nucleation score, namely low interval: < 0.3; middle interval: ≥ 0.3 and < 2; high interval: ≥ 2

substance	label-value
RKLGNLLPPEY	middle interval
LWPVCALDEGL	middle interval
ELVVPQWGQRRVHDLVCVEP	middle interval
NWSVTGCQLRGGRTEGNGIR	low interval
CWSPLGTFSLLALMGASKTL	low interval

(Q) Sort TFCICPFNAEV into one of the categories.
(A) high interval

---

Experiment: amyloid nucleation score (Sup35N fusion, yeast selection) (log enrichment); library NNK2; higher = more nucleation; inactive = no reads after selection
amyloid nucleation score of 0.6 or higher: true. Under 0.6: false.

seq	label-value
VHIMNSLVGSIVLGSSRRLS	true

(Q) Determine whether measured amyloid nucleation score meets or exceeds 0.6 for KSVTVGADHNVDVGVAEMIR
(A) true

(Q) Subsequent entry: SIMGYGFDVRCELCDVTGGW
(A) false

(Q) Subsequent entry: NVCRVDMAEKFGSFRLCN
(A) false

(Q) Subsequent entry: IVSIFSWTEIRATLG
(A) false

(Q) Subsequent entry: ASHLWDGRSAWHTVLSLPVT
(A) true

(Q) Subsequent entry: AVFSSVLGYNA
(A) false

---

Assay: amyloid nucleation score (Sup35N fusion, yeast selection) (log enrichment); library NNK1; higher = more nucleation; inactive = no reads after selection
recorded-endpoint: amyloid nucleation score

In the examples that follow, each entry is paired with its recorded amyloid nucleation score.
substance	amyloid nucleation score
CGNAWVKAIMW	-0.191
FRVWSAFPYVGKSSPFGHSS	-0.89
SNECLRNGAFYDCPVREAWM	-0.346
RANSYGGMSNVLW	0.281
SLDYKFSFLSQ	6.96
EFEPLSFQLVVELMRKFL	1.52

(Q) State the recorded amyloid nucleation score for this entry: NSSYTCPNFRHTFCRYICYA
(A) 0.533

(Q) Subsequent entry: SSVFCFIGKASEAVILAIYC
(A) -0.052

(Q) Subsequent entry: TSGWRYGYSSYHYRTLNGFV
(A) -0.35

(Q) Subsequent entry: FKRFLSLVCV
(A) 0.1

(Q) Subsequent entry: FLICVTSNWLGTYCRVERFW
(A) 0.023

(Q) Subsequent entry: NTLTMIHLIVLTELSLFK
(A) 0.297

(Q) Subsequent entry: LIVRNRHCLGAPFENFFSAR
(A) 0.671

(Q) Subsequent entry: QIIEPRARENGRINMMMVGG
(A) 0.481

(Q) Subsequent entry: ELGLSINFQIANFAACQGYI
(A) 1.99

(Q) Subsequent entry: RPKHTGTINYKHVHTNYVEG
(A) 1.36

(Q) Subsequent entry: KILCWNIFLPYKGVRGRFGM
(A) 6.89

(Q) Subsequent entry: MWNGMAGMSQAGSCQRCS
(A) -0.287

(Q) Subsequent entry: ELVKFIVRADNDSWVGRASV
(A) 0.267

(Q) Subsequent entry: EIHGCGCPLSKDGGGAFMWA
(A) 1.22

---

Assay: amyloid nucleation score (Sup35N fusion, yeast selection) (log enrichment); library NNK3; higher = more nucleation; inactive = no reads after selection
recorded-endpoint: amyloid nucleation score

In the examples that follow, each entry is paired with its recorded amyloid nucleation score.
substance	recorded-value
LEREDGVHWLMEEWVWCVDW	inactive
SNRNRTTNMNHEPLANYSFN	inactive
LLSIYCY	inactive
FCVTQWRAQRASHLYFMPGE	inactive
TCNNMYCWV	2.3
LTFLVRDCCTCSICNDGPSR	3.08

(Q) State the recorded amyloid nucleation score for this entry: RLWHLLFLHNRYHVVFNSIL
(A) inactive

(Q) Subsequent entry: TKLCQSLRHAQRGTRTTSFS
(A) inactive

(Q) Subsequent entry: GTEYLV
(A) inactive

(Q) Subsequent entry: IYTLSTLLWFWSAWSILAVI
(A) -0.197

(Q) Subsequent entry: NSSDVRQVLAIIRCGVV
(A) inactive

(Q) Subsequent entry: AVVVIQRYLAVHCWVFGERI
(A) -0.57

(Q) Subsequent entry: SYCYSIAMLAMIFLLMQCVI
(A) -0.011

(Q) Subsequent entry: SWWKDLVYD
(A) inactive

(Q) Subsequent entry: FNGICRWTCYSCS
(A) 2.09

(Q) Subsequent entry: QYDIVLCGQWYGLSKGLRYS
(A) inactive

(Q) Subsequent entry: ISFSWHF
(A) 0.789

(Q) Subsequent entry: TVIVCVTFLRGWVSSACGLS
(A) 0.045

---

Experiment: amyloid nucleation score (Sup35N fusion, yeast selection) (log enrichment); library NNK1; higher = more nucleation; inactive = no reads after selection
Categories are defined by ranges of amyloid nucleation score, namely label 0 = under -0.2, label 1 = from -0.2 up to 0.5, label 2 = 0.5 and over

Example entries begin here.
substance	label-value
WGQLIRGRNRSSQGEEMRYL	label 1
YRRNIIL	label 0
CGWNFTVIHFSLDSVSHLLY	label 0

(Q) Sort SLIYGILCKINQ into one of the categories.
(A) label 1

(Q) Subsequent entry: ARTGPTSASVGGLQPVCPGD
(A) label 1

(Q) Subsequent entry: VFIVELNFMLRN
(A) label 2

(Q) Subsequent entry: VTFRIVRVLPMEPVRTRAGD
(A) label 0

(Q) Subsequent entry: SSGHSVRVDNKTGVWVWPVG
(A) label 0

---

Assay: amyloid nucleation score (Sup35N fusion, yeast selection) (log enrichment); library NNK3; higher = more nucleation; inactive = no reads after selection
recorded-endpoint: amyloid nucleation score

In the examples that follow, each entry is paired with its recorded amyloid nucleation score.
substance	amyloid nucleation score
RILHFTICPNQWTRYKVDS	inactive
CSYRCYSLGCNMQIV	inactive
LRSLYSTINFKMCWICEAAS	inactive
KYVYFMSVFCEVCSRAHRVV	1.24
TTRYHF	inactive
TYVKYKRILQQGIYAVVMNV	inactive

(Q) State the recorded amyloid nucleation score for this entry: RCEFIFS
(A) inactive

(Q) Subsequent entry: KHYDLGFQYFSR
(A) inactive

---

Assay: amyloid nucleation score (Sup35N fusion, yeast selection) (log enrichment); library NNK2; higher = more nucleation; inactive = no reads after selection
Measured amyloid nucleation score, listed per entry for reference.
// return just the number, without any unit appended

substance	amyloid nucleation score
TGLKIG	0.038
LFDGRNYF	-0.669

(Q) State the recorded amyloid nucleation score for this entry: YISMKWEVAHNYWWILSGIP
(A) 0.444

(Q) Subsequent entry: KCVRTTVLHNRRVPDGLTMP
(A) 0.678

(Q) Subsequent entry: NGDLIRDRECRANMRFIMRV
(A) -1.21

(Q) Subsequent entry: QLICTMNFVAEYNWSALRRN
(A) 4.55

(Q) Subsequent entry: YCILLLNVVVMCYMMCDGFA
(A) 0.635

(Q) Subsequent entry: IDLFVCAESMDRRGVTIPRS
(A) 0.041

(Q) Subsequent entry: RNLGSCY
(A) -0.08
